# system: Interleukin-23 receptor (Homo sapiens)
# Sequence (Q5VWK5 whole entry): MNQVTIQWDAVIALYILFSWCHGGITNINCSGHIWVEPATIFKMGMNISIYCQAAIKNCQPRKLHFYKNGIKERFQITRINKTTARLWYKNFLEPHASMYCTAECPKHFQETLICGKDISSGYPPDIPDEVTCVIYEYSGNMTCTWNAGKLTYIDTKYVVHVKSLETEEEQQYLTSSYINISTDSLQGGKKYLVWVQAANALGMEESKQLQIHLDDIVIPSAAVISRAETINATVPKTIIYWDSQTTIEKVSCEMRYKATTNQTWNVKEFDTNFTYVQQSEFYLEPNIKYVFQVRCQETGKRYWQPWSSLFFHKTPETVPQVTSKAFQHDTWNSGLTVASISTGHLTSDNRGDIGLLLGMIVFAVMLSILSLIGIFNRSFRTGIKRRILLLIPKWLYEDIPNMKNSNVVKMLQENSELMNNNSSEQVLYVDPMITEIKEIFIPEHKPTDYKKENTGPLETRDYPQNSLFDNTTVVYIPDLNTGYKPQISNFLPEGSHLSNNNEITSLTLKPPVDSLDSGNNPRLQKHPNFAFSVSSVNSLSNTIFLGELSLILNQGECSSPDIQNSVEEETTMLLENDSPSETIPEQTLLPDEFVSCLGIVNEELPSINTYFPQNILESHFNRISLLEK
# assay_remarks: Inhibition of interleukin-23 binding to human interleukin-23 receptor incubated for 2 hrs by competitive binding ELISA
pIC50: −log10 of the molar value. Where a SMILES comes first, the peptide text is derived from it.
Entries and their pIC50

Recorded results for 2 molecules are shown here.
{"columns": ["molecule", "pIC50"],
 "data": [
  ["CCC(CC)(NC(=O)[C@H](CCCN)NC(=O)[C@H](Cc1c[nH]c2ccccc12)NC(=O)[C@H](Cc1ccc(O)cc1)NC(=O)[C@H](CS)NC(=O)[C@@H](NC(=O)[C@H](Cc1c[nH]c2ccccc12)NC(=O)[C@H](CC(=O)O)NC(=O)[C@H](C)NC(=O)[C@H](CS)NC(C)=O)C(C)C)C(=O)N[C@@H](Cc1ccccc1)C(=O)NCC(=O)NCCOCC(=O)N[C@H](CCCCN)C(N)=O", 5.22],
  ["CC(=O)N[C@@H](CS)C(=O)N[C@@H](CCC(N)=O)C(=O)N[C@H](C(=O)N[C@@H](Cc1c[nH]c2ccccc12)C(=O)N[C@@H](CCC(N)=O)C(=O)N[C@@H](CS)C(=O)N[C@@H](Cc1ccc(O)cc1)C(=O)N[C@@H](Cc1c[nH]c2ccccc12)C(=O)N[C@@H](CC1CCCC1)C(=O)N[C@@H](CCC(=O)O)C(=O)N[C@@H](CC(N)=O)C(=O)NCC(=O)NCCOCC(=O)N[C@H](CCCCN)C(N)=O)[C@@H](C)O", "> 6.30"]
]}

Print Interleukin-23 receptor (Homo sapiens) pIC50 for CC[C@H](C)[C@H](NC(=O)[C@H](Cc1cnc[nH]1)NC(=O)[C@H](Cc1c[nH]c2ccccc12)NC(=O)[C@H](Cc1ccc(O)cc1)NC(=O)[C@H](CS)NC(=O)[C@H](CCC(=O)O)NC(=O)[C@H](Cc1c[nH]c2ccccc12)NC(=O)[C@H](CC(=O)O)NC(=O)[C@H](CO)NC(=O)[C@@H](N)CS)C(=O)N[C@@H](Cc1ccccc1)C(=O)NCC(N)=O (H-CSDWECYWHIFG-NH2) .
< 6.00

Fill: pIC50 (Interleukin-23 receptor (Homo sapiens)) for this molecule CC(=O)N[C@@H](C)C(=O)N[C@H](C(=O)N[C@@H](CC(=O)O)C(=O)N[C@@H](Cc1c[nH]c2ccccc12)C(=O)N[C@H](C(=O)N[C@@H](CS)C(=O)N[C@@H](Cc1ccc(O)cc1)C(=O)N[C@@H](Cc1c[nH]c2ccccc12)C(=O)N[C@@H](CCCNC(=N)N)C(=O)N[C@@H](CCCCN)C(=O)N[C@@H](Cc1ccccc1)C(=O)NCC(=O)NCCOCC(=O)N[C@H](CCCCN)C(N)=O)C(C)C)C(C)(C)S
6.00 to 7.00

Retrieve pIC50 on Interleukin-23 receptor (Homo sapiens); query N=C(N)NCCC[C@H](NC(=O)[C@H](Cc1c[nH]c2ccccc12)NC(=O)[C@H](Cc1ccc(O)cc1)NC(=O)[C@@H]1CSCCCC(=O)N[C@@H](CCC(N)=O)C(=O)N[C@@H](CC(=O)O)C(=O)N[C@@H](Cc2c[nH]c3ccccc23)C(=O)N[C@@H](CCC(N)=O)C(=O)N1)C(=O)N[C@@H](CCC(=O)O)C(=O)N[C@@H](CC(N)=O)C(=O)NCC(=O)NCCOCC(=O)N[C@H](CCCCN)C(N)=O
5.22

// fetch pIC50; item: CC(=O)N[C@@H](CS)C(=O)N[C@@H](CCC(N)=O)C(=O)N[C@H](C(=O)N[C@@H](Cc1c[nH]c2ccccc12)C(=O)N[C@@H](CCC(N)=O)C(=O)N[C@@H](CS)C(=O)N[C@@H](Cc1ccc(O)cc1)C(=O)N[C@H](CC(=O)N[C@@H](CCCNC(=N)N)C(=O)N[C@H](C(=O)N[C@@H](CC(N)=O)C(=O)NCC(=O)NCCOCC(=O)N[C@H](CCCCN)C(N)=O)C(C)C)Cc1cccc2ccccc12)[C@@H](C)O ; system: Interleukin-23 receptor (Homo sapiens)
< 4.52

Look up and report pIC50, with Interleukin-23 receptor (Homo sapiens) as system, for CC(=O)N[C@@H](CS)C(=O)N[C@@H](CCC(N)=O)C(=O)N[C@H](C(=O)N[C@@H](Cc1c[nH]c2ccccc12)C(=O)N[C@@H](CCC(N)=O)C(=O)N[C@@H](CS)C(=O)N[C@@H](Cc1ccc(O)cc1)C(=O)N[C@@H](Cc1c[nH]c2ccccc12)C(=O)N[C@H](CC(C)C)C(=O)N[C@@H](CCC(=O)O)C(=O)N[C@@H](CC(N)=O)C(=O)NCC(N)=O)[C@@H](C)O
6.50
